assay: Half life in pH 4.5 buffer at 70 degC by [31P] NMR spectrometry; assay type: physicochemical
attributeMeasured: half-life

Please report the measured half-life for O=C(O)CC[C@H](NP(=O)(O)O[C@@H]1C[C@@H](C(=O)O)N(C(=O)CC[C@H](NC(=O)CCCCCNC(=O)c2ccc(F)cc2)C(=O)O)C1)C(=O)O
32 min

Please report the measured half-life for O=C(O)CC[C@H](NP(=O)(O)OCCC[C@H](NC(=O)CC[C@H](NC(=O)CCCCCNC(=O)c1ccc(F)cc1)C(=O)O)C(=O)O)C(=O)O
12 min

Data provenance: ChEMBL document CHEMBL3425431
